- applied.conditions: in n-butyl acetate, 293.15 K

[
  {
    "smi": "OCCOc1ccc2ccccc2c1-c1c(OCCO)ccc2ccccc12",
    "solubility (mole fraction)": 0.00286
  }
]

###

- applied.conditions: in ethyl formate, 288.15 K

[
  {
    "smi": "OCCOc1ccc2ccccc2c1-c1c(OCCO)ccc2ccccc12",
    "solubility (mole fraction)": 0.00284
  }
]

###

- applied.conditions: in isobutanol, 298.15 K

[
  {
    "smi": "OCCOc1ccc2ccccc2c1-c1c(OCCO)ccc2ccccc12",
    "solubility (mole fraction)": 0.00147
  }
]

###

- applied.conditions: in n-propanol, 308.15 K
result.type: solubility (mole fraction)

[
  {
    "smi": "OCCOc1ccc2ccccc2c1-c1c(OCCO)ccc2ccccc12",
    "experimental.value": 0.00494
  }
]

###

- applied.conditions: in n-propanol, 303.15 K
result.type: solubility (mole fraction)

[
  {
    "smi": "OCCOc1ccc2ccccc2c1-c1c(OCCO)ccc2ccccc12",
    "experimental.value": 0.00369
  }
]

###

- applied.conditions: in ethyl formate, 283.15 K
result.type: solubility (mole fraction)

[
  {
    "smi": "OCCOc1ccc2ccccc2c1-c1c(OCCO)ccc2ccccc12",
    "experimental.value": 0.00207
  }
]

###

- applied.conditions: in n-butyl acetate, 283.15 K
result.type: solubility (mole fraction)

[
  {
    "smi": "OCCOc1ccc2ccccc2c1-c1c(OCCO)ccc2ccccc12",
    "experimental.value": 0.00136
  }
]

###

- applied.conditions: in ethyl acetate, 303.15 K

[
  {
    "smi": "OCCOc1ccc2ccccc2c1-c1c(OCCO)ccc2ccccc12",
    "solubility (mole fraction)": 0.00802
  }
]

###

- applied.conditions: in isopropanol, 283.15 K

[
  {
    "smi": "OCCOc1ccc2ccccc2c1-c1c(OCCO)ccc2ccccc12",
    "solubility (mole fraction)": 0.000762
  }
]

###

- applied.conditions: in toluene, 308.15 K

[
  {
    "smi": "OCCOc1ccc2ccccc2c1-c1c(OCCO)ccc2ccccc12",
    "solubility (mole fraction)": 0.00447
  }
]

###

- applied.conditions: in acetone, 323.15 K
result.type: solubility (mole fraction)

[
  {
    "smi": "OCCOc1ccc2ccccc2c1-c1c(OCCO)ccc2ccccc12",
    "experimental.value": 0.0567
  }
]

###

- applied.conditions: in ethyl formate, 293.15 K
result.type: solubility (mole fraction)

[
  {
    "smi": "OCCOc1ccc2ccccc2c1-c1c(OCCO)ccc2ccccc12",
    "experimental.value": 0.00399
  }
]

###

- applied.conditions: in methyl acetate, 308.15 K
result.type: solubility (mole fraction)

[
  {
    "smi": "OCCOc1ccc2ccccc2c1-c1c(OCCO)ccc2ccccc12",
    "experimental.value": 0.0137
  }
]

###

- applied.conditions: in isobutyl acetate, 303.15 K
result.type: solubility (mole fraction)

[
  {
    "smi": "OCCOc1ccc2ccccc2c1-c1c(OCCO)ccc2ccccc12",
    "result.type": "solubility (mole fraction)",
    "experimental.value": 0.00396
  }
]

###

- applied.conditions: in methyl acetate, 323.15 K
result.type: solubility (mole fraction)

[
  {
    "smi": "OCCOc1ccc2ccccc2c1-c1c(OCCO)ccc2ccccc12",
    "result.type": "solubility (mole fraction)",
    "experimental.value": 0.0292
  }
]
